recorded.metric: melting point

Answer for every listed entry: what is its melting point? The entries follow.
1. CCN(CC)c1nc2cc(-c3ccccc3C#N)ccc2[nH]1
2. OC1(c2ccccc2)CCN(CCC2COc3ccccc3O2)CC1 (stereo unspecified)
3. Nc1ncc(-c2ccncc2)cn1

Result:
["138 to 142 °C", "142 °C", "180 to 182 °C"]

Answer for every listed entry: what is its melting point? The entries follow.
1. OCc1ccccc1CBr
2. Cc1nc2c(C)cccn2c1C1=NNC(=O)CO1
3. Cc1nc(C(F)(F)F)ccc1C(=O)C1=C(Sc2ccc(Cl)cc2)C2CCC(C2)C1=O (stereo unspecified)

Result:
1: 61 to 63 °C; 2: 310 to 313 °C; 3: 130 to 131 °C

* * *

For each record, write down the corresponding melting point.

Briefly, melting point measured for COc1cc(C(=O)NN)cc(OC)c1OCCCN(C)C : 95 to 96 °C

Briefly, melting point measured for Cc1nc(NC(=N)N)sc1C(=O)Nc1cccc(OCC(=O)OC(C)(C)C)c1 : 204 °C

Briefly, melting point measured for Cc1nc2cccc(S(N)(=O)=O)c2s1 : 223 to 224 °C

Answer for every listed entry: what is its melting point? The entries follow.
1. COc1ccc(OC)c2c(Nc3ccc4cn[nH]c4c3)c(C#N)cnc12
2. NS(=O)(=O)c1ccc(OCCn2ccnc2)cc1
3. CSC(=CC(=O)c1ccccc1)CC(=O)c1ccccc1

Result:
["302 to 305 °C", "148 °C", "106 to 108 °C"]

* * *

For each record, write down the corresponding melting point.

Briefly, melting point measured for Nc1nc(-n2cc(C(=O)O)c(=O)c3cc(F)c(F)c(F)c32)c(F)cc1F : 280 °C

Briefly, melting point measured for O=c1[nH]c2ncc(-c3ccc4[nH]ccc4c3)nc2n1CC1CCCCC1 : 343 to 346 °C

Briefly, melting point measured for CN1CCNC(c2ccccc2)c2cc([N+](=O)[O-])ccc21 (stereo not given) : 96 to 99 °C

Briefly, melting point measured for COC1(c2ccc(Sc3ccc(C(=O)c4c(F)c(F)c(F)c(F)c4F)cc3)s2)CCOCC1 : 93 to 94 °C

Briefly, melting point measured for O=C(O)CNC(=O)n1cc(C(=O)c2ccn3c2CSC3c2cccnc2)c2ccc(-c3ccc(F)cc3)cc21 (stereo not given) : 255 °C

Answer for every listed entry: what is its melting point? The entries follow.
1. CCN(CC)CCNC(=O)c1cc(Cl)c(N)cc1OCC(=O)c1cccs1
2. CCOC(=O)c1nc(N)sc1C(=O)c1ccccn1
3. CC(C)(CCCCCCCc1c(-c2ccccc2)nc(-c2ccccc2)n1-c1ccccc1)C(=O)O
4. COc1c(C)c(C)c2c(c1C)C(c1ccc(C=O)cc1)C(C)(C)O2 (stereo not given)
5. N=C(NO)c1ccc(OCCCOc2c(Cl)cc(OCC=C(Cl)Cl)cc2Cl)cc1
6. COc1cc(Br)c(O)c(C=O)c1

Result:
1: 135 to 139 °C; 2: 143 to 144 °C; 3: 119 to 120 °C; 4: 108 to 109 °C; 5: 144 to 146 °C; 6: 107 to 110 °C

Answer for every listed entry: what is its melting point? The entries follow.
1. N#Cc1ccc(C(=O)N2CCC[C@H]2C(=O)O)cc1
2. CC1(C)CC(=O)c2c(O)ccc(Br)c2C1
3. COc1ccc(C(=O)Nc2ccccc2)cc1NCc1ccc(-c2ccccc2)cc1
4. O=C1c2c(Cl)cccc2-n2cnc(-c3noc(CN(C4CCCCC4)C4CCCCC4)n3)c2[C@@H]2CCN12
5. CCOc1nn(-c2ccccn2)cc1CCCOc1cccc(OC(C)(C)C(=O)O)c1
6. CC(C)Cc1[nH]c(=O)[nH]c1-c1cc(C(C)(C)C)c(O)c(C(C)(C)C)c1

Result:
1. 80 to 85 °C
2. 65 to 67 °C
3. 222 to 223 °C
4. 155 to 185 °C
5. 99 to 101 °C
6. 286 to 289 °C

Answer for every listed entry: what is its melting point? The entries follow.
1. COc1cc(C(=O)NS(=O)(=O)c2ccccc2Cl)ccc1Cn1cc(/C=C/C(=O)N2CCCC2)c2ccc(/C=C/C(=O)N3CCCC3)cc21
2. Cc1ccc(-c2cncn2-c2ccc(S(C)(=O)=O)cc2)cc1
3. CCOCc1ccc2oc(C(=O)OCC)c(C)c2c1O

Result:
["291 to 293 °C", "156 °C", "97 to 98 °C"]

* * *

For each record, write down the corresponding melting point.

Briefly, melting point measured for CCCCOc1ccc(/C=C/c2nc3c(c(=O)n(CC)c(=O)n3CC)n2C)cc1 : 123 to 124 °C

Briefly, melting point measured for CCC(CC)N(O)C(=O)Nc1ccc(-c2ccccc2)cc1 : 183 to 184 °C

Answer for every listed entry: what is its melting point? The entries follow.
1. COC12C=CC(CC1)C1=C2C(=O)c2c(O)ccc(O)c2C1=O (stereo unspecified)
2. COC(=O)c1cc(-c2ccc(OC)c(F)c2)nn(CC2CCCC2)c1=O

Result:
1. 239 to 241 °C
2. 56 to 66 °C

Answer for every listed entry: what is its melting point? The entries follow.
1. CC(C)(C)c1ccc(N2C[C@H](Cn3ccnn3)OC2=O)cc1
2. CC(=O)Oc1ccc(C=CC(=O)O)cc1C=O

Result:
140 to 142 °C
205 to 207 °C

* * *

For each record, write down the corresponding melting point.

Briefly, melting point measured for c1ccc(-c2ccc3sc(-c4nc(COc5ccc(CCCn6ccnc6)cc5)co4)cc3c2)cc1 : 168 to 169 °C

Answer for every listed entry: what is its melting point? The entries follow.
1. Cc1c(F)c(N)c(Cl)c2c1c(=O)c(C(=O)O)cn2-c1cc(N)c(F)cc1F
2. CC(=O)OCCc1ccc2sc(S(N)(=O)=O)cc2c1
3. CCOCCN(CC1=CCC(N)(Oc2ccccc2)C=C1)C(=O)C(Cl)Cl (stereo not given)
4. COCCOc1nn2c(-c3ccc(OC)cc3)nnc2c2ccccc12
5. Cc1nc(N2CCN(Cc3nccc4ccccc34)C2=O)sc1C(=O)NCc1cccnc1
6. Cc1cc(F)cc2nc(Cl)c(Cl)nc12

Result:
1: > 280 °C; 2: 120 to 122 °C; 3: 96 to 98 °C; 4: 174 to 176 °C; 5: 151 to 153 °C; 6: 116 to 120 °C

Answer for every listed entry: what is its melting point? The entries follow.
1. O=[N+]([O-])c1ccc2c(C3=CCC4(CC3)OCCO4)c[nH]c2c1
2. CC(c1c[nH]c([N+](=O)[O-])n1)N1CCCCC1 (stereo not given)
3. Cc1ccc(-c2c(CNC(=O)OC(C)(C)C)n(CC(C)C)c(=O)c3ccc(/C=C/C(=O)O)cc23)cc1
4. COC(=O)C(C)(C)OCc1cc2cc(Cl)ccc2n1S(=O)(=O)c1ccc2sc(C)nc2c1
5. CC(C)(Oc1cccc(C(=O)c2ccc(Cl)cc2)c1)C(=O)O

Result:
1: 259 to 261 °C; 2: 61 to 62 °C; 3: 171 to 173 °C; 4: 132 to 134 °C; 5: 144 °C

* * *

For each record, write down the corresponding melting point.

As a guide, the following entries are already answered.
Briefly, melting point measured for COC[C@H]1CN(c2ccc3nc([C@@H](O)CCC#N)sc3c2)C(=O)O1 : 74 to 75 °C

Briefly, melting point measured for CC(C)(C)c1cc2c(c(C(C)(C)C)c1)OC(=O)C2c1ccc(OCCO)cc1 (stereo not given) : 132 to 135 °C

Briefly, melting point measured for OC(CCl)COc1ccc2c(c1)OCC(c1ccccc1)C2 (stereo not given) : 74 to 76 °C

Briefly, melting point measured for COc1ncccc1NC(=NC#N)NC(NC(=O)c1ccc(Cl)cc1)C(C)(Cl)Cl (stereo not given) : 155 to 156 °C

Briefly, melting point measured for Nc1cc(-c2ccccc2)c(S(N)(=O)=O)cc1S(N)(=O)=O : 197 to 198 °C

Briefly, melting point measured for Cc1ccc(S(=O)(=O)N(CCBr)c2ccc(Cl)cc2[N+](=O)[O-])cc1 : 70 to 72 °C

Answer for every listed entry: what is its melting point? The entries follow.
1. Cc1c(Cl)cccc1Nc1ncccc1C(=O)OC1OC(=O)c2ccccc21 (stereo not given)
2. CCc1cc(OCc2ccc(-c3ccccc3C#N)cc2)c2ccccc2n1
3. CSc1sc(C(=O)N2CCCC2)c2c1-c1oncc1C(C)(C)C2
4. CCOC(=O)Cc1nc(-c2ccc(Cl)cc2)oc1OCC

Result:
["178 to 180 °C", "151 to 153 °C", "114 to 116 °C", "144 to 146 °C"]

* * *

For each record, write down the corresponding melting point.
Starred links: 1 amine or outer side, 2 acyl side, 3 side chain; linkers in the order of their positions; H or OH if unused. Residues, ends and D or L forms follow the SMILES beside them. *: point of attachment. βAsp = O=C(O)[CH](CC(=O)[*:2])N[*:1]; Bz = O=C(c1ccccc1)*

Briefly, melting point measured for COc1nc(C(F)(F)F)cc(=O)n1-c1cc(O)c(Br)cc1F : 132 to 136 °C

Briefly, melting point measured for CCOC(=O)OC1=C(c2c(C)cc(C)cc2C)C(=O)N(C)C12CCN(OC)CC2 : 134 to 136 °C

Briefly, melting point measured for CC(NC(=O)CC(NC(=O)c1ccccc1)C(=O)O)C(=O)N1CCCC1C(=O)O (stereo not drawn) ({Bz-βAsp}-Ala-Pro-OH; configuration not given here) : 110 °C

Answer for every listed entry: what is its melting point? The entries follow.
1. CCn1c(SCc2ccccn2)nc2ccccc2c1=O
2. COc1cccc(CNc2ncnc3c2sc2nc(N4CCCC4)c4c(c23)CC(C)(C)CC4)c1OC
3. CCOC(=O)c1c2n(c3c(F)c(Cl)ccc3c1=O)CCS2
4. COc1cc(Cl)c2nc(NN)nc(N)c2c1OC

Result:
1: 110 to 111 °C; 2: 194 to 195 °C; 3: 216 °C; 4: 168 to 169 °C

Answer for every listed entry: what is its melting point? The entries follow.
1. CCC(=O)c1cc(O)cc2cc(-c3ccc(O)cc3)oc12
2. O=C(NCCc1ccc(F)cc1)OCc1ccccc1
3. Nc1cc(C(=O)O)cc(S(N)(=O)=O)c1-c1ccccc1

Result:
1: 257 to 260 °C; 2: 51 to 52 °C; 3: 232 to 237 °C

Answer for every listed entry: what is its melting point? The entries follow.
1. Cc1cc(Cl)cc(NC(=O)Cc2ccc(OC3(C(=O)O)CCCC3C)cc2)c1 (stereo unspecified)
2. Cc1ccccc1NC(=O)Nc1ccc(C(=O)N2CCCCc3ccccc32)cc1
3. COc1ccc2nc(C(=O)NCC(=O)O)c(OCc3ccccc3)cc2c1
4. CCC1CCC(C2CCC(CC)CC2)CC1 (stereo unspecified)

Result:
1. 180 to 182 °C
2. 182 °C
3. 118 °C
4. -6 °C

Answer for every listed entry: what is its melting point? The entries follow.
1. CC(C)(C)c1ncc(C=O)cn1
2. COc1ccc(C=CC(=O)c2ccc(OC)cc2O)cc1

Result:
1. 82 to 83 °C
2. 108 °C
